target_system: Recombinant STAT3 protein (STAT3(G127-I722)) (Homo sapiens)
Construct: STAT3(G127-I722)
Sequence (P40763 127-722, species assumed): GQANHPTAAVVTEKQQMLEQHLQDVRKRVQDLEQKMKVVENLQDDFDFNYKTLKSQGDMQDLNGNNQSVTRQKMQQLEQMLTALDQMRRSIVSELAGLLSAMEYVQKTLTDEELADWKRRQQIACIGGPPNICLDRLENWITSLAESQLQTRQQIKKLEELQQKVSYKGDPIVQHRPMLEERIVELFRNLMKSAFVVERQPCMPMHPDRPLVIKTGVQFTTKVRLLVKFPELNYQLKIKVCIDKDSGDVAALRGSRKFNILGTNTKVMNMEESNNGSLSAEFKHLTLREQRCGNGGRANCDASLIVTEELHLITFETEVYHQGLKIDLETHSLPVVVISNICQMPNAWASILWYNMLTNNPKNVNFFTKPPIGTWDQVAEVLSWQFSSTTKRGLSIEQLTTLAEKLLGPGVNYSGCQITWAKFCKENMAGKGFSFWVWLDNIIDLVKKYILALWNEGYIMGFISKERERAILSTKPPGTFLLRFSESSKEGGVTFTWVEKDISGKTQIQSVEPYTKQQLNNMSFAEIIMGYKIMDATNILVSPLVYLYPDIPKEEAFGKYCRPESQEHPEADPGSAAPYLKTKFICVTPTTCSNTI
experiment_description: STAT3 Fluorescence Polarization (FP) Assay
assay_conditions: STAT3(G127-I722) 25 nM, probe 5-FAM-GpYLPQTV-NH2 2 nM, 45-minute incubation
pIC50: −log10 of the molar value.
metric_name: pIC50

{"compound": "O=C(N[C@H]1C[C@H]2C[C@H]2C[C@H]2CC[C@@H](C(=O)N3CC(c4ccccn4)C3)N2C1=O)c1cc2cc(CP(=O)(O)O)ccc2s1 [Compound 23]", "measurement": "6.00 to 7.00"}

Consider the compound CN(C)c1ccncc1C1CN(C(=O)[C@@H]2CC[C@@H]3C[C@@H]4C[C@@H]4C[C@H](NC(=O)c4cc5cc([C@@H](F)P(=O)(O)O)ccc5s4)C(=O)N32)C1 (single isomer, unassigned) [Example 394] and give its measured pIC50.
> 7.00

Value lookup for pIC50; key = CO[C@@H]1CCN(c2ccncc2C2CN(C(=O)[C@@H]3CC[C@@H]4C[C@H]5C[C@H]5C[C@H](NC(=O)c5cc6cc([C@@H](F)P(=O)(O)O)ccc6s5)C(=O)N43)C2)C1 [Example 422]
> 7.00
